# maps each entry to its K
species on record: Rattus norvegicus; assay: Open TG-GATES - Regimen: Single; assay type: toxicity, organism-based, Sprague-Dawley; set-up: regimen Single, gender Male, age 6 weeks; settings: in vivo, po, 0 mg/kg, 3 h, tissue Plasma, route gavage, dose level Control
I only need the number, in meq/L, no unit after it.

• CCO [ALCOHOL] = 4.5
• O=C(O)c1ccccc1Nc1ccccc1 [FENAMIC ACID] = 4.2
• CN(CCOc1ccc(CC2SC(=O)NC2=O)cc1)c1ccccn1.O=C(O)/C=C\C(=O)O (stereo not given) [ROSIGLITAZONE MALEATE] = 4.4

Q: For the compound shown here, C=C[C@H]1C[N@@]2CC[C@H]1C[C@@H]2[C@@H](O)c1ccnc2ccc(OC)cc12 [QUINIDINE] , give the reported K.
Result: 3.9

Q: What value of measured K is listed for CN(C)CCCN1c2ccccc2Sc2ccc(Cl)cc21 [CHLORPROMAZINE] ?
Result: 4

Q: What does the record list as K for CCCCNC(=O)NS(=O)(=O)c1ccc(C)cc1 [TOLBUTAMIDE] ?
Result: 4.1

Q: K lookup needed for COc1ccc([C@@H]2Sc3ccccc3N(CCN(C)C)C(=O)[C@@H]2OC(C)=O)cc1 [DILTIAZEM] , thanks.
Result: 4.4

Q: // returns reported K for input O=c1ccc2ccccc2o1 [COUMARIN]
Result: 4.7

Q: Which K is listed for NS(=O)(=O)c1cc(C(=O)O)c(NCc2ccco2)cc1Cl [FUROSEMIDE] ?
Result: 4

Q: Using the record for CCN(CC)C(=S)SSC(=S)N(CC)CC , report its K.
Result: 4.2

====

organism: Rattus norvegicus; assay: Open TG-GATES - Regimen: Daily Repeat; assay type: toxicity, organism-based, Sprague-Dawley; design: regimen Daily Repeat, gender Male, age 6 weeks; settings: in vivo, po, 100 mg/kg, […], tissue Plasma, route gavage, dose level Low, time 14 day
MEASUREMENT LABEL: ALP (IU/L)
Write the number in IU/L without appending the unit.

Record excerpt, results attached:
• CC(=O)[C@@]1(O)CC[C@H]2[C@@H]3C=C(Cl)C4=CC(=O)CC[C@]4(C)[C@H]3CC[C@@]21C = 1379.4
• O=C(O)c1ccccc1Nc1ccccc1 = 1703.6
• CC(S)C(=O)NCC(=O)O (centres undefined) = 1412.8

Next molecule, please.
Q: Find the recorded ALP belonging to CCCCNC(=O)NS(=O)(=O)c1ccc(C)cc1 [TOLBUTAMIDE] and report it.
Result: 1429.8

====

species: Rattus norvegicus; assay: Open TG-GATES - Regimen: Single; assay type: toxicity, organism-based, Sprague-Dawley; set-up: regimen Single, gender Male, age 6 weeks; conditions: in vivo, po, 0 mg/kg, 6 h, tissue Blood, route gavage, dose level Control
Measured Mono, listed per entry.
Note: state the figure and append the unit.

Study these solved cases before continuing.
- COc1ccc([C@@H]2Sc3ccccc3N(CCN(C)C)C(=O)[C@@H]2OC(C)=O)cc1 [DILTIAZEM]: 2.6%
- CC(=O)[C@@]1(O)CC[C@H]2[C@@H]3C=C(Cl)C4=CC(=O)CC[C@]4(C)[C@H]3CC[C@@]21C [CHLORMADINONE]: 2.8%

Now examine the next entry.
Q: Bench note: what Mono did CN(C)CCCN1c2ccccc2Sc2ccc(Cl)cc21 [CHLORPROMAZINE] show?
Result: 2.8%
